System: MS2 coat protein
Assay: apparent KD of MS2 coat protein; designed switch direction (-1 OFF switch, 1 ON switch): 1; higher = weaker reporter binding
Details: input ligand: FMN 200 uM
MEASURE_NAME: apparent KD of MS2 coat protein (nM)
Answers are plain numbers, in nM.

Provide each entry's apparent KD of MS2 coat protein from the list below.
1. GCUCGGAUGAUGGCCCACAUGAGGAUCACCCAUGUGCGUGGGCAGGAUAUCUAGAUUAAGGAUGUAGAGAAGGGUCUACCGAGC [SameState NG3 #32] (Eterna round: R96, puzzle: Same State NG 3)
2. GGCCUGUAGACAGGAUAUGGGAAAGGAAGUGUACCAGAAGGGUCAAAGAUAUAGGUGGACAUGAGGAUCACCCAUGUAAUUAAC [PowerStrip SSNG 1.21] (Eterna round: R96, puzzle: Same State NG 1)
3. AGAGGAGGCGCAGGAUAUACGACGGAGGACGAGGUAGAAGGGUGCAUGCGAUAACAUGAGGAUCACCCAUGUACCGCGCGACGA [AK SSNG1-V2-17.1] (Eterna round: R96, puzzle: Same State NG 1)
4. UAACAGUACAAUUUAGAUCUACAUGAGGAUCACCCAUGUACUGAGGAUAUCAGCUCGUUUAGAGCUGAGAAGGCAGAAGAACUA [SSNG3/11-A3] (Eterna round: R96, puzzle: Same State NG 3)
5. AGAGGAGGCGCAGGAUAUACGACGGAGGACGUGGUAGAAGGGUGCAUGCGAAAACAUGAGGAUCACCCAUGUACCGCGCGACGA [ssng1 c] (Eterna round: R96, puzzle: Same State NG 1)
6. GCCAUCGAGUGAGGAUAUGGCACCGAAACGGUGCCAGAAGGCAUGUCAAUUGACAUGAGGAUCACCCAUGUAUUAUCGAUGGCA [Mat - Same State NG 1 - JL mod - D87] (Eterna round: R96, puzzle: Same State NG 1)
7. CGUCGUUUGAUAGGAUAUCGCUUUGCAUGAGGAUCACCCAUGUUUACCACGCUGGUUUUUCUUUCCGAGAAGGAUUCUGAUGUU [salish99_SSNG02_r04_024] (Eterna round: R96, puzzle: Same State NG 2)

Response line:
1. 194
2. 56.6
3. 122
4. 39.7
5. 816
6. 154
7. 42

Give apparent KD of MS2 coat protein for all sequences that follow.
1. AGAUGUUAAUCAGGAUAUGGGCACAUGAGGAUCACCCAUGUAAAUUCGAUACUAUGUGGUCACGUCUAGAAGGGAUGGCUAACA [SameState NG2 #82] (Eterna round: R96, puzzle: Same State NG 2)
2. GCUCGAUGAGCGUUUUACAUGAGGAUCACCCAUGUUCGUGGGCAGGAUAUUUACGUGCGGAGUGUAGAGAAGGGCCCAUCGAGC [SameState NG3 #68] (Eterna round: R96, puzzle: Same State NG 3)

Response line:
1: 189; 2: 71.3

====

System: MS2 coat protein
Assay: apparent KD of MS2 coat protein; designed switch direction (-1 OFF switch, 1 ON switch): -1; higher = weaker reporter binding
Settings: input ligand: FMN 200 uM
Assign class by apparent KD of MS2 coat protein: not lower than 20 nM means met; lower than 20 nM means not met.

>>> discrete_label("UGCCGAAGAGGAUAUACAUUGAAUUUGAUUCAUGUAAAACUACAUGAGGAUCACCCAUGUAGAAGGCUUUGGCU [Mat - Exclusion 2 - JL Mod - D61] (Eterna round: R97, puzzle: Exclusion 2)")
"met"
>>> discrete_label("AGGUUGGCGUGAGGAUAUUGGAAAGGAAGUGUACAAGAAGGUACGGACCUAAAACAUGAGGAUCACCCAUGUGGUCCUUAUGCC [PowerStrip EXNG 1.26] (Eterna round: R96, puzzle: Exclusion NG 1)")
"not met"
>>> discrete_label("CCUCAUGGGCAGGAUAUCAGUCGAAAGUUUAUAUGAGAAGGGCCAACAUGAGGAUCACCCAUGUAAUCCCUGAC [EX6 C.14] (Eterna round: R97, puzzle: Exclusion 6)")
"met"

Prompt line: API: above_or_equal(metric=apparent KD of MS2 coat protein, cutoff=20 nM) for item ACUGUUGCAGGAUAUAUGGUGCUAGACAUGAGGAUCACCCAUGUAGGCCUUGUCUAGCAGGUAGAAGGGCACCCAC [Eternabot (L1) Solution 94] (Eterna round: R97, puzzle: Exclusion 5)
Response line: met

Prompt line: Is apparent KD of MS2 coat protein at least 20 nM? Consider ACAUGAGGAUCACCCAUGUAAACAUAAUGGCUCAUGUAGAGUCAGGAUAUGCGUGGCUAACAAUCGCAGAAGGGACAAGACUGG [Deportation 29 - Jieux - Exclusion NG 3] (Eterna round: R96, puzzle: Exclusion NG 3)
Response line: met

====

For each entry below, report its apparent KD of MS2 coat protein value.
System: MS2 coat protein
Test: apparent KD of MS2 coat protein; higher = weaker reporter binding
Settings: Eterna round: R107; input ligand: theophylline 2 mM
One number for each entry, in nM.

Here's what some known entries look like.
>>> result_number("GCUGCACAUUCGGCCGCCACUGCUGUUACAGGAAGCUAUAGCUCACAUGAGGAUCACCCAUGUCCCAGGACCGGGAAAGUAUGGA [theeternabot_sameState_MS2_Trp_B_39]")
74.2
>>> result_number("AAGCCCAGGACGGCCGCCACUGUAAAAUGGUGGUUCGCCUGUAAGAACAUGAGGAUCACCCAUGUCAGGACCGGGUCCACGAGUU [theeternabot_exclusion_MS2_Trp_B_46]")
15.8

# context switch: different sequence, same apparent KD of MS2 coat protein
Prompt line: Query: apparent KD of MS2 coat protein; subject: AUGGUAAGAACAUGAGGAUCACCCAUGUGACGAGGACCGGUACGGCCGCCACUCGUACCUUAGUCGUCGAACAGAGGAUUCAUGU [Trypt A-MS2@10]
Response line: 125

====

Tested on: K4 kissing-loop RNA reporter;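 further: bound reporter read as fluorescence of individual clusters on recovered sequencing chips by microscopy, with normalized cluster intensities fitted with a binding model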
Experiment: apparent KD of K4 kissing-loop reporter; higher = weaker reporter binding
Details: Eterna round: R107; input ligand: FMN 200 uM
Answer each item with its documented apparent KD of K4 kissing-loop reporter.
Answers are plain numbers, in nM.

Known apparent KD of K4 kissing-loop reporter results, listed for orientation:
>>> result_number("UGAUACCAGACGGCCGCCACUCCCGUAAGUCAAAGACUUACGAAGAGAGUUUUUCAGUGAUGUUGGAGGACCGGGUCUGGUAUCU [FiskerMod 16 - Jieux - Exclusion - Tryptophan B]")
838
>>> result_number("CGCGCGCGCGCGCGCGCGCGCGCGAAUGAUACCAGUAUAUAAGAAUACCCUUGGCAGCAUAAGAAAGAUAUAGUGAUGUUGUAUA [SSTheophA.B]")
285
>>> result_number("GUCCCGAGUGAUGUUCGGGUCGUUUGGGAAGGAGCGCCCGGAAGGGCAGGUAGGUCGCCCGGACCGUGCAGGUAACUGUGCGGCC [#2 Same State - Arginine A Attempt #18 (HarryS)]")
176
>>> result_number("UGUAUAGUCAGAAGGAGCGUGAACGAUCGAGAAUCGAUCAGCCAGUGAUGUUGGCAGGAAUCACAGGUAGGUCGCUGACUGUACA [Arg B SS t3]")
237
>>> result_number("AAGUCUCGUUAAUUCGAGGUUACGAUCGAUACCAGUAGCGAGAGGUACCCUUGGCAGCGAAGUGAGUGAUGUUCAUGAAAGAAGA [KL-XTheoA12]")
78.5
>>> result_number("AGACUUCACCGAAGGAGCGACGUAGCCUAGUGAUGUUAGGCACGAGAGAAAUCUCGUGUACGUCAGGUAGGUCGCGGUGAAGUCA [Omei KL Arginine B SS C v5]")
990
>>> result_number("GCUAUGGUAGGAAGGAGCGCUUAUUUAUUUUUAAGAGUGAUGUUCGUUAGUAGAUAGUUAAAGCAGGUAGGUCGCCUACUAUAGC [Arginine B K4 15]")
146
>>> result_number("GUUCGGAUGCGGGAUACCAGCGUACCGAGCAAGCUUCGGGUAGUGAUGUUAUCUGAAUUACGCCCUUGGCAGCCCGCAUCCGGGC [clock_plus]")
265
>>> result_number("UGAUAGGACAGAAGGAGCGGAAGUGAUGUUUCCAAAAGGUAAGGUCGACAAAGUCGACCCUUCCAGGUAGGUCGCUGUCCUAUCU [ArgBX 11 #Palindromic #SwitchBubble #StaticStem]")
88.5
>>> result_number("GGGAGAGCGCGAAGGAGCGCCCUGACAGGUUGCUGCCGUGGGCAGUGAUGUUGCUCAGUCCGGCAGGUAGGUCGCGUGCUCUCCC")
178

Prompt line: If you can, please state the reported apparent KD of K4 kissing-loop reporter value of CGUUUAGUGAUGUUAAGCGUCCACUACGAUACCAGAACUAUAACCUUCCCUUGGCAGCGUUUAUAUUGUAACUCAUGUGUUAAUU [theeternabot_exclusion_KL_Theo_A_11] .
Response line: 520
